Target: PDE4D2 (Homo sapiens)
Sequence (Q08499 303-809 limits assumed): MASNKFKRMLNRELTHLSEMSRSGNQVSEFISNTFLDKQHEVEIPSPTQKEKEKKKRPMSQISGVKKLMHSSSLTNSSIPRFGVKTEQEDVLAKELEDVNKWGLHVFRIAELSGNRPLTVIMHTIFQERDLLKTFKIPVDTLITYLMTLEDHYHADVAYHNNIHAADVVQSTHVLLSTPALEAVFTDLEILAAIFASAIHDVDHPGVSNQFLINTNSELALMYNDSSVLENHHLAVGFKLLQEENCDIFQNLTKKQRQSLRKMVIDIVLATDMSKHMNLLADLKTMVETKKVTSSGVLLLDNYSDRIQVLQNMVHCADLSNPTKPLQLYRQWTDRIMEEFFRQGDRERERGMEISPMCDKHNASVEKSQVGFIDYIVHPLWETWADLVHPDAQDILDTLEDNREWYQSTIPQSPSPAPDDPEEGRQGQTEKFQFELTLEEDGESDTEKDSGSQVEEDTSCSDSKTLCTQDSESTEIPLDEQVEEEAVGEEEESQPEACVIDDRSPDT
measured.quantity: IC50

Noted IC50 for Cc1c(C#N)cccc1[C@@H](C)Nc1nnc(C)c2cnc(N3CCOCC3)cc12 , tested on PDE4D2 (Homo sapiens): > 10 µM

----------
Experiment: in vivo
Details: CD-1, mouse, po, 100 mg/kg, pH 5
Quick list: AUC(0-t) per entry.
// note: answer is a bare numeric in ng·h/mL

Cc1c([C@@H](C)Nc2nnc(C)c3ccc(N4CCNCC4)cc23)cccc1C(F)(F)F [Compound 15] : 1300

Please find the next compound below.
Looking up Cc1c([C@@H](C)Nc2nnc(C)c3cnc(N4CCNCC4)cc23)cccc1C(F)(F)F [Compound 23] , I see its AUC(0-t) listed as 9970
